Assay: Plasma palbociclib pharmacokinetics, part 1
Type: in vivo, human
Conditions: human, plasma, oral, 125 mg, AUCτ (= AUC0–24), 125 mg once daily, multiple doses (day 8 of cycle 1), n = 6; geometric mean (geometric %CV)
measurement.kind: AUC(0-t) (ng·h/mL)

chemical.string	measurement.kind	value
CC(=O)c1c(C)c2cnc(Nc3ccc(N4CCNCC4)cn3)nc2n(C2CCCC2)c1=O	AUC(0-t)	2840

====

Assay: Plasma palbociclib pharmacokinetics, part 1
Assay type: in vivo, human
Details: human, plasma, oral, 100 mg, AUClast, single dose, n = 6; geometric mean (geometric %CV)

chemical.string	scale.unit	AUC(0-t)
CC(=O)c1c(C)c2cnc(Nc3ccc(N4CCNCC4)cn3)nc2n(C2CCCC2)c1=O	ng·h/mL	972

====

Assay: Plasma palbociclib pharmacokinetics, part 1
Format: in vivo, human
Settings: human, plasma, oral, 100 mg
measurement.kind: Tmax (h)

chemical.string	value
CC(=O)c1c(C)c2cnc(Nc3ccc(N4CCNCC4)cn3)nc2n(C2CCCC2)c1=O	5

====

Assay: Plasma palbociclib pharmacokinetics, part 1
Format: in vivo, human
Conditions: human, plasma, oral, 100 mg, AUCτ (= AUC0–24), single dose, n = 6; geometric mean (geometric %CV)

chemical.string	scale.unit	AUC(0-t)
CC(=O)c1c(C)c2cnc(Nc3ccc(N4CCNCC4)cn3)nc2n(C2CCCC2)c1=O	ng·h/mL	548

====

Assay: Plasma palbociclib pharmacokinetics, part 1
Format: in vivo, human
Settings: human, plasma, oral, 100 mg, AUCτ (= AUC0–24), 100 mg once daily, multiple doses (day 8 of cycle 1), n = 6; geometric mean (geometric %CV)

chemical.string	AUC(0-t) / ng·h/mL
CC(=O)c1c(C)c2cnc(Nc3ccc(N4CCNCC4)cn3)nc2n(C2CCCC2)c1=O	1280

====

Assay: Plasma palbociclib pharmacokinetics, part 1
Format: in vivo, human
Conditions: human, plasma, oral, 100 mg

chemical.string	scale.unit	AUC(0-inf)
CC(=O)c1c(C)c2cnc(Nc3ccc(N4CCNCC4)cn3)nc2n(C2CCCC2)c1=O	ng·h/mL	1040

====

Assay: Plasma palbociclib pharmacokinetics, part 1
Type: in vivo, human
Conditions: human, plasma, oral, 125 mg

chemical.string	Tmax
CC(=O)c1c(C)c2cnc(Nc3ccc(N4CCNCC4)cn3)nc2n(C2CCCC2)c1=O	4 to 5 h

====

Assay: Plasma palbociclib pharmacokinetics, part 1
Format: in vivo, human
Conditions: human, plasma, oral, 125 mg

chemical.string	concentration at 4 h, ng/mL
CC(=O)c1c(C)c2cnc(Nc3ccc(N4CCNCC4)cn3)nc2n(C2CCCC2)c1=O	172

====

Experiment: Plasma palbociclib pharmacokinetics, part 1
Format: in vivo, human
Conditions: human, plasma, oral, 125 mg, AUCτ (= AUC0–24), single dose, n = 6; geometric mean (geometric %CV)
measurement.kind: AUC(0-t) (ng·h/mL)

chemical.string	measurement.kind	scale.unit	value
CC(=O)c1c(C)c2cnc(Nc3ccc(N4CCNCC4)cn3)nc2n(C2CCCC2)c1=O	AUC(0-t)	ng·h/mL	1320
